- System: NCI-H226 lung
- assayName: NCI-60 one-dose screen, 48 h (100 = growth as untreated, 0 = no growth, -100 = all killed)
- conditionDescription: 10 µM unless noted
The panel holds about 83,000 compounds, 20% with a hit somewhere; the sample as a whole holds those more often.
# cutoff 30% applies to growth; >= gives y, < gives n

>>> assignedcategory("Cc1cc(C(O)CN(C)C)cc2c1ccc1cc(C(C)C)ccc12 (centres undefined)")
"y"
>>> assignedcategory("COc1cc(-c2nc(C(=O)NCC(=O)O)nn2-c2ccc(Cl)cc2)cc(OC)c1OC")
"y"
>>> assignedcategory("C#Cc1cccc(Nc2ncnc3cc(OC)c(OCCCCCCC(=O)NO)cc23)c1")
"n"
>>> assignedcategory("CNC(=O)c1cc(Oc2ccc(NC(=O)Nc3ccc(Cl)c(C(F)(F)F)c3)c(F)c2)ccn1")
"n"
>>> assignedcategory("Clc1ccc2c(NCCNc3nc(N4CCCC4)nc4ccccc34)ccnc2c1")
"n"
>>> assignedcategory("COc1cc2c(Oc3ccc(NC(=O)C4(C(=O)Nc5ccc(F)cc5)CC4)cc3F)ccnc2cc1OCCCN1CCOCC1")
"n"
>>> assignedcategory("O=C(NC1CCNCC1)c1[nH]ncc1NC(=O)c1c(Cl)cccc1Cl")
"n"
>>> assignedcategory("COc1cc(F)c(F)c(Nc2ccc(I)cc2F)c1NS(=O)(=O)C1(C[C@H](O)CO)CC1")
"y"
>>> assignedcategory("O=S1(=O)OC(c2cc(Cl)c(O)c(Br)c2)(c2cc(Cl)c(O)c(Br)c2)c2ccccc21")
"y"

###

- Test system: MCF7 breast
- assayName: NCI-60 one-dose screen, 48 h
- conditionDescription: 10 µM unless noted
Compounds without any hit were thinned out: in the full panel of roughly 83,000, 20% have a hit. Active and inactive are the calls of the source. Rule for the calls: active = growth percent below 10; inactive = the rest.
Classes used: active, inactive

>>> assignedcategory("Cc1cc(Nc2ncc(Cl)c(Nc3ccccc3S(=O)(=O)C(C)C)n2)c(OC(C)C)cc1C1CCNCC1")
"active"
>>> assignedcategory("CCCCCCCC(=O)SCC/C=C/[C@@H]1CC(=O)NCc2cccc(n2)C2=N[C@@](C)(CS2)C(=O)N[C@@H](C(C)C)C(=O)N1")
"inactive"
>>> assignedcategory("O=C(NO)c1ccc(Cn2c(=O)n(-c3ccccc3F)c(=O)c3ccccc32)cc1")
"inactive"
>>> assignedcategory("O=C(O)C1(Cc2cccc(Nc3nccs3)n2)CCC(Oc2cccc(Cl)c2F)CC1 (centres undefined)")
"inactive"

###

- Test system: MDA-MB-435 melanoma
- assayName: NCI-60 one-dose screen, 48 h
- conditionDescription: 10 µM unless noted
- Experimental: Growth inhibition of the MDA-MB-435 human Melanoma tumor cell line is measured as a screen for anti-cancer activity. Cells are grown in 96 well plates and exposed to the test compound for 48 hours. Compounds are tested at a single concentration, which is 10^-5 M for most compounds. The reported endpoint is percent growth (GI% or GIPRCNT), where numbers from 0 - 100% represent growth inhibition, and numbers from -100% - 0 represent cell death. […]
The panel holds about 83,000 compounds, 20% with a hit somewhere; the sample as a whole holds those more often. Calls of active or inactive are those of the source. How the source made its calls: active means growth percent below 10; inactive means the rest.
Classes used: active, inactive

>>> assignedcategory("CC(=O)OC(C(=O)c1ccccc1)c1ccccc1 (stereo not given)")
"inactive"
>>> assignedcategory("O=c1[nH]c([C@@H]2CCCN2)nc2c1oc1ccc(Cl)cc12")
"inactive"
>>> assignedcategory("C=CCN1C(=O)c2cccc3c(-c4ccc5c(c4)ncn5C4CCCCC4)ccc(c23)C1=O")
"inactive"
>>> assignedcategory("CNC(=O)c1ccccc1Nc1nc(Nc2ccc3c(c2OC)CCC[C@H](N2CCN(CCO)CC2)C3)ncc1Cl")
"active"
>>> assignedcategory("COc1c(OCCCN2CCOCC2)ccc2c3n(c(=NC(=O)c4cnc(N)nc4)nc12)CCN3")
"active"
